# Test system: E. coli TolC(−)
# ASSAY_METHOD_TEXT: TolC(−) MIC (NB)
# Format: cell-based
# APPLIED_CONDITIONS: Escherichia coli, read-out: TolC(−) MIC (μM)(NB)
Entries and their MIC values follow.
Numeric answer only, unit µM assumed.

Some solved cases for reference:
[[record]]
molecule = "O=C(Nc1nnc(-c2ccc(F)cc2)o1)N1CCCc2ccccc2C1"
experimental_value = 17.7

[[record]]
molecule = "CC1=C(Br)CN(C(=O)Nc2nnc(-c3ccc(F)cc3)o2)CC1"
experimental_value = 0.78

[[record]]
molecule = "CC1CC(C)CN(C(=O)Nc2nnc(-c3ccc(F)cc3)o2)C1 (stereo not drawn)"
experimental_value = 6.25


Record O=C(Nc1nnc(-c2ccc(F)cc2)o1)N1CCC(Nc2ccccc2)CC1 : what is its MIC with E. coli TolC(−)?
11.1

Query COC(=O)C1=CCN(C(=O)Nc2nnc(-c3ccc(F)cc3)o2)CC1 next
12.5

Can you check CC(Oc1ccc(C(=O)Nc2nnc(-c3ccc(F)cc3)o2)cc1)c1ccccc1 (stereo not drawn) next?
1.56

Same for Cc1ccccc1-c1nnc(NC(=O)N2CCC(Cl)=C(Cl)C2)o1
1.56

// next record O=C(Nc1nnc(C2CCC2)o1)c1ccc(Oc2ccccc2)nc1
12.5
